target of assay: murine class II MHC allele E^k on CH27 B cell lymphoma antigen presenting cells (murine)
assay remarks: cell-based or functional assay
Non-standard residues stand in square brackets, D forms with d. Ava = NCCCCC(=O)O
observed property: T cell proliferative response (HT-2 [3H]TdR uptake) at 47 nM

binder	value measured
Ac-LRMK[Ava][Ava]IAYLKQATAK-NH2 (SMILES CC[C@H](C)[C@H](NC(=O)CCCCNC(=O)CCCCNC(=O)[C@H](CCCCN)NC(=O)[C@H](CCSC)NC(=O)[C@H](CCCNC(=N)N)NC(=O)[C@H](CC(C)C)NC(C)=O)C(=O)N[C@@H](C)C(=O)N[C@@H](Cc1ccc(O)cc1)C(=O)N[C@@H](CC(C)C)C(=O)N[C@@H](CCCCN)C(=O)N[C@@H](CCC(N)=O)C(=O)N[C@@H](C)C(=O)N[C@H](C(=O)N[C@@H](C)C(=O)N[C@@H](CCCCN)C(N)=O)[C@@H](C)O) [Hybrid 3, Ac-LRMK-ava-ava-IAYLKQATAK-NH2]	26.2 thousands of cpm

Okay, now this binder:
Form: binder = Ac-LRMK[Ava]IAYLKQATAK-NH2 (SMILES CC[C@H](C)[C@H](NC(=O)CCCCNC(=O)[C@H](CCCCN)NC(=O)[C@H](CCSC)NC(=O)[C@H](CCCNC(=N)N)NC(=O)[C@H](CC(C)C)NC(C)=O)C(=O)N[C@@H](C)C(=O)N[C@@H](Cc1ccc(O)cc1)C(=O)N[C@@H](CC(C)C)C(=O)N[C@@H](CCCCN)C(=O)N[C@@H](CCC(N)=O)C(=O)N[C@@H](C)C(=O)N[C@H](C(=O)N[C@@H](C)C(=O)N[C@@H](CCCCN)C(N)=O)[C@@H](C)O) [Hybrid 2, Ac-LRMK-ava-IAYLKQATAK-NH2] ; T cell proliferative response (HT-2 [3H]TdR uptake) at 47 nM = 20.8 thousands of cpm
